- Test system: Balanus improvisus cyprid larvae
- measurementProtocol: whole plant or invertebrate
- Format: in vivo
- setupConditions: Amphibalanus improvisus, 120 h, read-out: IC50 (cyprid settlement inhibition)
measurementName: log10(IC50) (log10 of the value in µg/mL)
Annotation: log10 of IC50, µg/mL basis.

[
  {
    "cpdSmiles": "COc1cc(OC)cc(C(Cc2ccccc2)=NO)c1",
    "subjectOfTest": "Balanus improvisus cyprid larvae",
    "log10(IC50)": -0.12
  }
]

Value of log10(IC50) reported for the compound COc1ccc(CC(=NO)c2ccc(O)c(O)c2)cc1 is 0.70

// log10(IC50) lookup, compound = COc1ccc(C(Cc2ccc(O)cc2)=NO)cc1OC , result: 0.70

* * *

- Tested on: Pleurochrysis roscoffensis
- measurementProtocol: Microalgal adhesion assay (chlorophyll a)
- Type: cell-based
- setupConditions: Chrysotila roscoffensis, 120 h, 5 days incubation, 10–0.01 μg/mL tested, read-out: MIC against the adhesion (A) of microalgae, P. roscoffensis
Listing of recorded MIC by entry.
The figure you give is taken to be in µg/mL; do not add the unit.

Below, each entry is followed by its recorded MIC result.
[
  {
    "cpdSmiles": "COc1ccc(CC(=NO)c2ccc(O)c(O)c2)cc1",
    "MIC / µg/mL": 0.1
  },
  {
    "cpdSmiles": "COc1cc(C(Cc2cccc(O)c2)=NO)ccc1O",
    "MIC / µg/mL": 1
  }
]

Field MIC (entry COc1ccc(CC(=NO)c2ccc(OC)c(OC)c2)cc1 ) reads 10

* * *

- Test system: Balanus improvisus cyprid larvae
- measurementProtocol: whole plant or invertebrate
- Format: in vivo
- setupConditions: Balanus improvisus, in vivo, 5 days, 5 μg/mL
Listed here are compounds together with their documented Toxicity (%) (dead cyprids).

[
  {
    "compound": "COc1ccc(CC(=NO)c2ccc(OC)c(OC)c2)cc1 [Compound 9]",
    "Toxicity (%) (dead cyprids)": "0.0%"
  },
  {
    "compound": "COc1ccc(C(Cc2ccc(O)cc2)=NO)cc1OC [Compound 8]",
    "Toxicity (%) (dead cyprids)": "0.0%"
  },
  {
    "compound": "COc1ccc(CC(=NO)c2ccc(O)c(O)c2)cc1 [Compound 10]",
    "Toxicity (%) (dead cyprids)": "2.6%"
  },
  {
    "compound": "COc1cc(C(Cc2ccc(O)cc2)=NO)ccc1O [Compound 12]",
    "Toxicity (%) (dead cyprids)": "3.5%"
  }
]

Per the record, COc1ccc(CC(=NO)c2ccc(O)c(OC)c2)cc1 [Compound 11] has Toxicity (%) (dead cyprids) of 5.3%

The measured Toxicity (%) (dead cyprids) associated with COc1cc(C(Cc2cccc(O)c2)=NO)ccc1O [Compound 13] reads 1.6%

Sample COc1cc(CC(=NO)c2ccc(OC)c(OC)c2)ccc1O [Compound 14] ; Toxicity (%) (dead cyprids) observed: 4.8%

Form field Toxicity (%) (dead cyprids), entry COc1ccc(C(Cc2ccccc2)=NO)cc1OC [Compound 7] : 5.8%

* * *

- Test system: Balanus improvisus cyprid larvae
- measurementProtocol: whole plant or invertebrate
- Type: in vivo
- setupConditions: Amphibalanus improvisus, 120 h, read-out: IC50 (cyprid settlement inhibition)
I'd appreciate it if you marked entries TRUE when IC50 is lower than 2 µg/mL and FALSE when it is not.

Field: example entries. Status: answers known.
[
  {
    "compound": "COc1cc(C(Cc2cccc(O)c2)=NO)ccc1O [Compound 13]",
    "group": "FALSE"
  },
  {
    "compound": "CCCCCCCCn1sc(Cl)c(Cl)c1=O [Sea-nine™]",
    "group": "TRUE"
  },
  {
    "compound": "COc1cc(CC(=NO)c2ccc(OC)c(OC)c2)ccc1O [Compound 14]",
    "group": "TRUE"
  }
]

Now consider the entry below.
Lookup: Bench note: check whether COc1ccc(CC(=NO)c2ccc(O)c(OC)c2)cc1 [Compound 11] shows IC50 below 2 µg/mL
Found: FALSE

Data provenance: paper PMC5889410
